Origin of measurements: the RNAGym collection of RNA variant scans (doi:10.7554/elife.80360)

B1: CPEB3 Ribozyme (parent)
chain: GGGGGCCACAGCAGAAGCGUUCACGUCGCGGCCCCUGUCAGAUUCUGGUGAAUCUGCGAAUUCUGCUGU

# Variants of: B1
# experiment_summary: self-cleavage, relative activity (ratio to wild type); higher = more cleavage; co-transcriptional
self-cleavage below 0.5 gives n; self-cleavage at or above it gives y.

{"variant_id": "C18G C54G", "class_name": "n"}
{"variant_id": "A40G C45G", "class_name": "y"}
{"variant_id": "C7A C18U", "class_name": "n"}
{"variant_id": "A8U U64G", "class_name": "y"}
{"variant_id": "A51C C54A", "class_name": "y"}
{"variant_id": "A13G C29U", "class_name": "n"}
{"variant_id": "U64A U69A", "class_name": "y"}
{"variant_id": "C29U A42G", "class_name": "n"}
{"variant_id": "C18U G41A", "class_name": "n"}
{"variant_id": "C34G U44A", "class_name": "y"}
{"variant_id": "G31A U55G", "class_name": "y"}
{"variant_id": "C22U C57G", "class_name": "n"}
{"variant_id": "C7U U44G", "class_name": "y"}
{"variant_id": "A15G U53A", "class_name": "y"}
{"variant_id": "G65C U67A", "class_name": "y"}
{"variant_id": "G4U U26A", "class_name": "n"}
{"variant_id": "G47A U61A", "class_name": "y"}
{"variant_id": "A10U A60G", "class_name": "y"}
{"variant_id": "U20A A42U", "class_name": "n"}
{"variant_id": "U44G G56C", "class_name": "n"}
{"variant_id": "A16C U44G", "class_name": "n"}
{"variant_id": "C18G A52G", "class_name": "n"}
{"variant_id": "A10C G47C", "class_name": "y"}
{"variant_id": "C9U G65A", "class_name": "y"}
{"variant_id": "A10U C63U", "class_name": "y"}
{"variant_id": "G2A C63A", "class_name": "n"}
{"variant_id": "C35U G37C", "class_name": "n"}
{"variant_id": "A40C A60G", "class_name": "n"}
{"variant_id": "C35A C63U", "class_name": "n"}
{"variant_id": "A23G C29U", "class_name": "n"}
{"variant_id": "A10C C18U", "class_name": "y"}
{"variant_id": "G14U U62A", "class_name": "n"}
{"variant_id": "C24A G31A", "class_name": "n"}
{"variant_id": "C6A U38A", "class_name": "n"}
{"variant_id": "C6G G50C", "class_name": "n"}
{"variant_id": "G2C G41A", "class_name": "n"}
{"variant_id": "A10U C66G", "class_name": "y"}
{"variant_id": "C18U U20G", "class_name": "n"}
{"variant_id": "U46C U61G", "class_name": "y"}
{"variant_id": "G48C A60G", "class_name": "y"}
{"variant_id": "G3A C63U", "class_name": "y"}
{"variant_id": "C35G G48C", "class_name": "y"}
{"variant_id": "C34G G37C", "class_name": "n"}
{"variant_id": "C7G G25A", "class_name": "n"}
